Please respond with reported pKd for every item in the list.
- TARGET DESC: T1, biotinylated ADDL (bADDL) (UniProt P05067 672-713, N-terminal biotin)
- T1 construct: domain: Aβ1-42; Panning and ELISA speak of 10% biotinylated ADDL; also called bADDLs; high molecular weight bADDL
- EXPERIMENTAL DETAILS: BIACORE, Fab against bADDL
Answers are plain numbers, as −log10 of the molar value.

Answered cases to consult:
Endpoint output: pKd of 4a-D5 Fab (Fab, V domains shown) VH: QVTLKESGPALVKPTQTLTLTCTLSGFSLSTSGMGVGWIRQPPGKALEWLAHIWWDDDKSYNPSLKSRLTISKDTSKNQVVLTMTNMDPVDTATYYCARRQLGDNVADAMDYWGQGTTVTVSS VL: DVVMTQSPLSLPVTPGEPASISCRSSQSILHSNGNTYLEWYLQKPGQSPQLLIYKVSNRFSGVPDRFSGSGSGTDFTLKISRVEAEDVGVYYCLQTTRVPLTFGQGTKLEIKR . Value?
8.93

Endpoint output: pKd of 4a-E10 Fab (Fab, V domains shown) VH: QVTLKESGPALVKPTQTLTLTCTLSGFSLSTSGMGVGWIRQPPGKALEWLAHIWWDDDKSYNPSLKSRLTISKDTSKNQVVLTMTNMDPVDTATYYCARRQLGFQSTDAMDYWGQGTTVTVSS VL: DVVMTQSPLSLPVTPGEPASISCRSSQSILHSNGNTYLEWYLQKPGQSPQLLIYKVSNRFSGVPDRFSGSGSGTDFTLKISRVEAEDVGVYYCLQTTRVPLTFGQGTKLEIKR . Value?
7.73

The record that follows has no pKd shown yet.
Endpoint output: pKd of 4b-A12 Fab (Fab, V domains shown) VH: QVTLKESGPALVKPTQTLTLTCTLSGFSLSTSGMGVGWIRQPPGKALEWLAHIWWDDDKSYNPSLKSRLTISKDTSKNQVVLTMTNMDPVDTATYYCARRQLGPEPQDAMDYWGQGTTVTVSS VL: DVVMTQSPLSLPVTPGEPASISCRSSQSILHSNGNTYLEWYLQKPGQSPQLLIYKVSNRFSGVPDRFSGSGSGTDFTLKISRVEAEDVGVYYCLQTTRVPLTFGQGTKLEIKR . Value?
6.81
